System: TK-10
Assay: NCI tumour cell line growth inhibition, 48 h
Calls of active or inactive are those of the source. Rule as the data show it: active = GI50 up to about 1.1 µM and inactive = higher.
experimental_endpoint: GI50

* COC(=O)C(NC(=O)c1ccccc1)C(c1ccc(Cl)cc1)P(=O)(OC)OC (configuration not stated) | > 100 µM (inactive)
* O=C(O)c1ccc(C2SCc3nc4ccccc4n32)cc1 (configuration not stated) | > 100 µM (inactive)

In: Which measured GI50 value corresponds to CC(C)C(C/C=C1\CC(CO)(COC(=O)C2CCCCC2)OC1=O)C(C)C (configuration not stated) ?
Out: 21 µM (inactive)

In: Similarly, O=C1C2C(c3ccccc3)NC(c3ccccc3)C1C(c1ccccc1)NC2c1ccccc1 (configuration not stated) ?
Out: > 100 µM (inactive)

In: Now consider FC(F)(F)c1ccc2nc(NCc3ccccc3)c(-c3ccccc3)nc2c1 and answer again.
Out: 29.6 µM (inactive)

In: Then this compound: COc1cc(NCC(C#N)C#N)ccc1/N=N/c1ccc([N+](=O)[O-])cc1
Out: > 100 µM (inactive)

In: Repeat with CCOC(=O)C(=NN(C)c1ncccc1N)C(=O)OCC
Out: 79.3 µM (inactive)

The origin of these recorded values is ChEMBL document CHEMBL1201862.
